Assayed target: Phosphatidylinositol 4,5-bisphosphate 3-kinase catalytic subunit beta isoform (Homo sapiens)
Sequence (P42338 whole entry, canonical isoform): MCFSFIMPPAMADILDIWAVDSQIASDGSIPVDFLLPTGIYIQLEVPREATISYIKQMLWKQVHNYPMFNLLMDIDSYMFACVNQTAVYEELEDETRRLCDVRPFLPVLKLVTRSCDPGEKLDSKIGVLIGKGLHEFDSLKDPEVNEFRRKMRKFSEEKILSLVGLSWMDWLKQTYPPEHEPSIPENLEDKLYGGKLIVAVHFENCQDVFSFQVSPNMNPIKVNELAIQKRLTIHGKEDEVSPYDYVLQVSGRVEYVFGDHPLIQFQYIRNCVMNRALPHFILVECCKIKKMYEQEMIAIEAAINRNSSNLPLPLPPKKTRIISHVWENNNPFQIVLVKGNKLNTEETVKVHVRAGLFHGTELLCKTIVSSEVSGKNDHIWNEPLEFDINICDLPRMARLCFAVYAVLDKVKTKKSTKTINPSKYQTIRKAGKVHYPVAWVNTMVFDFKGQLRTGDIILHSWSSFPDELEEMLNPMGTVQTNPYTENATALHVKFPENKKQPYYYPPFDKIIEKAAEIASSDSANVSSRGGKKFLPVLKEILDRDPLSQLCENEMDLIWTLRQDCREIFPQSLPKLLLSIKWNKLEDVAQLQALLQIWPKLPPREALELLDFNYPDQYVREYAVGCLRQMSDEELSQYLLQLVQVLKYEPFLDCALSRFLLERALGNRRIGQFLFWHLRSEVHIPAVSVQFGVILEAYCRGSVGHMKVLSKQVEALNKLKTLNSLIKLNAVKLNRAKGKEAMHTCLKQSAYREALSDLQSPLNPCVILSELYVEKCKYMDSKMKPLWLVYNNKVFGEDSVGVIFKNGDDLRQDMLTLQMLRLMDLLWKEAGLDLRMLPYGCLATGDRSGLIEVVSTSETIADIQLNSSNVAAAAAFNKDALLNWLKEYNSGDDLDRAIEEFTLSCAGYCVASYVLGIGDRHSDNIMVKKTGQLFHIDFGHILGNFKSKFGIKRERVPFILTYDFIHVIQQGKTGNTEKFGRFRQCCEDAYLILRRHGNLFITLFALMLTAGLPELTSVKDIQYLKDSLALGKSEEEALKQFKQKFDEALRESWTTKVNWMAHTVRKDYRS
Procedure text: Inhibition of human recombinant PI3Kbeta assessed as PIP3 production by AlphaScreen assay
Heads up, the class ranges for IC50 are A = under 60 nM, B = from 60 nM up to 200 nM, C = 200 nM and over

INSERT INTO measurements (molecule, classification) VALUES
  ('Cc1ccccc1OC(C)c1cc(C(=O)N(C)CCO)cn2c(=O)cc(N3CCOCC3)nc12 (stereo unspecified)', 'B'),
  ('CC(Nc1ccccc1)c1cc(C(=O)N(C)CCO)cn2c(=O)cc(N3CCOCC3)nc12 (stereo unspecified)', 'A'),
  ('COc1ccccc1OC(C)c1cc(C(=O)N(C)CCO)cn2c(=O)cc(N3CCOCC3)nc12 (stereo unspecified)', 'C'),
  ('CC(Nc1ccccc1)c1cc(C(=O)NCCN(C)C)cn2c(=O)cc(N3CCOCC3)nc12 (stereo unspecified)', 'A'),
  ('CC(Nc1ccccc1)c1cc(C(=O)N(C)CC(=O)O)cn2c(=O)cc(N3CCOCC3)nc12 (stereo unspecified)', 'C'),
  ('Cc1cccc(OC(C)c2cc(C(=O)N(C)CCO)cn3c(=O)cc(N4CCOCC4)nc23)c1 (stereo unspecified)', 'B'),
  ('COc1cccc(OC(C)c2cc(C(=O)N(C)CCO)cn3c(=O)cc(N4CCOCC4)nc23)c1 (stereo unspecified)', 'A'),
  ('CC(Oc1ccccc1)c1cc(C(=O)N(C)CCO)cn2c(=O)cc(N3CCOCC3)nc12 (stereo unspecified)', 'B'),
  ('CC(Nc1ccccc1)c1cc(C(=O)N(C)C)cn2c(=O)cc(N3CCOCC3)nc12 (stereo unspecified)', 'B'),
  ('Cc1c(F)cccc1OC(C)c1cc(C(=O)N(C)CCO)cn2c(=O)cc(N3CCOCC3)nc12 (stereo unspecified)', 'A'),
  ('CC(Nc1ccccc1)c1cc(C(=O)NCCN2CCNCC2)cn2c(=O)cc(N3CCOCC3)nc12 (stereo unspecified)', 'B');
